Measured PSA-Luc activity (%) mean ± SD values are reported for all entries that follow.
TARGET_OR_SYSTEM: AR (Homo sapiens)
EXPERIMENT_SUMMARY: PSA-luciferase reporter assay of AR transcriptional activity
Format: cell-based
CONDITION_PARAMETERS: PSA-luciferase reporter

{"MOLECULE": "CC(C)(c1ccc(OC[C@H](O)CCl)cc1)c1ccc(OC[C@@H](O)CO)cc1", "TARGET_OR_SYSTEM": "AR (Homo sapiens)", "PSA-Luc activity (%) mean ± SD": 24.49}
{"MOLECULE": "CC(C)(c1ccc(OC[C@H](O)CO)cc1)c1ccc(OC[C@@H](O)CCl)cc1", "TARGET_OR_SYSTEM": "AR (Homo sapiens)", "PSA-Luc activity (%) mean ± SD": 45.16}
{"MOLECULE": "CC(C)(c1ccc(OCC(O)CO)cc1)c1ccc(OCC(O)CCl)cc1 (centres unmarked)", "TARGET_OR_SYSTEM": "AR (Homo sapiens)", "PSA-Luc activity (%) mean ± SD": 36.91}
{"MOLECULE": "CC(C)(c1ccc(OC[C@H](O)CO)cc1)c1ccc(OC[C@H](O)CCl)cc1", "TARGET_OR_SYSTEM": "AR (Homo sapiens)", "PSA-Luc activity (%) mean ± SD": 24.33}
{"MOLECULE": "CC(C)(c1ccc(OC[C@@H](O)CO)cc1)c1ccc(OC[C@@H](O)CCl)cc1", "TARGET_OR_SYSTEM": "AR (Homo sapiens)", "PSA-Luc activity (%) mean ± SD": 33.55}

* * *

TARGET_OR_SYSTEM: AR (Homo sapiens, UniProt P10275)
Sequence (P10275 1-920 T878A): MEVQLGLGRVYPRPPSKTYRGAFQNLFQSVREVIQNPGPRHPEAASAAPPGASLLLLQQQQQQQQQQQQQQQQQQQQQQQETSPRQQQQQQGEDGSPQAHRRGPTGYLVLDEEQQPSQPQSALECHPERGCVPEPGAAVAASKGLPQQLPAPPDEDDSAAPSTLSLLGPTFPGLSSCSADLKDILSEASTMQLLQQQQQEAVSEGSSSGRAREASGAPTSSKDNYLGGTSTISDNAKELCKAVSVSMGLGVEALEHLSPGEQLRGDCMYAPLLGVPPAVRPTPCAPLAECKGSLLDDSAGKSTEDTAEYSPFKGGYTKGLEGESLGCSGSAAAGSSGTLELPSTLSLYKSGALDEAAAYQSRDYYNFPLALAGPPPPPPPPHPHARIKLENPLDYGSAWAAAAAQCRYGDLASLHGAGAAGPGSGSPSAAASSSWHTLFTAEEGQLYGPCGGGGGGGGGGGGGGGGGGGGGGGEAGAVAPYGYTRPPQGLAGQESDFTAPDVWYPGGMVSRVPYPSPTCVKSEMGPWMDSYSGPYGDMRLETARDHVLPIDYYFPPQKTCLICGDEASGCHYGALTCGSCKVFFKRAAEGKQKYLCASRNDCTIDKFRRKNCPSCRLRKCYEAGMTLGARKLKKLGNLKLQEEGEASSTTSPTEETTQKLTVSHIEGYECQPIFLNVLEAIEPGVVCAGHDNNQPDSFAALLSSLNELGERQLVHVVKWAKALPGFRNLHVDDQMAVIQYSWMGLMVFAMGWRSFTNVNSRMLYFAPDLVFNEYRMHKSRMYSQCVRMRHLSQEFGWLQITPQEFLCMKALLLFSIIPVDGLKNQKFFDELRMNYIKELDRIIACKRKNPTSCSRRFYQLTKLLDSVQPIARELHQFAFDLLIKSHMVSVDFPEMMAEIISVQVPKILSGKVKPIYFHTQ
EXPERIMENT_SUMMARY: ARR3-luciferase reporter assay of AR transcriptional activity
Assay type: cell-based
The threshold is 60%. Values of ARR3-Luc activity (%) mean ± SD beneath it are tagged criterion met; values meeting or exceeding it are tagged criterion not met.

{"MOLECULE": "CC(C)(c1ccc(OC[C@H](O)CCl)cc1)c1ccc(OC[C@@H](O)CO)cc1", "GROUP_LABEL": "criterion met"}
{"MOLECULE": "CC(C)(c1ccc(OC[C@H](O)CO)cc1)c1ccc(OC[C@H](O)CCl)cc1", "GROUP_LABEL": "criterion met"}
{"MOLECULE": "CC(C)(c1ccc(OCC(O)CO)cc1)c1ccc(OCC(O)CCl)cc1 (centres unmarked)", "GROUP_LABEL": "criterion not met"}
{"MOLECULE": "CC(C)(c1ccc(OC[C@@H](O)CO)cc1)c1ccc(OC[C@@H](O)CCl)cc1", "GROUP_LABEL": "criterion met"}
{"MOLECULE": "CC(C)(c1ccc(OC[C@H](O)CO)cc1)c1ccc(OC[C@@H](O)CCl)cc1", "GROUP_LABEL": "criterion not met"}

* * *

Measured PB-Luc activity (%) mean ± SD values are reported for all entries that follow.
TARGET_OR_SYSTEM: AR (Homo sapiens, UniProt P10275)
EXPERIMENT_SUMMARY: probasin (PB)-luciferase reporter assay of AR transcriptional activity
Format: cell-based

{"COMPOUND": "CC(C)(c1ccc(OC[C@@H](O)CO)cc1)c1ccc(OC[C@@H](O)CCl)cc1 [(Ad)]", "PB-Luc activity (%) mean ± SD": 54.72}
{"COMPOUND": "CC(C)(c1ccc(OC[C@H](O)CCl)cc1)c1ccc(OC[C@@H](O)CO)cc1 [(Ab)]", "PB-Luc activity (%) mean ± SD": 43.70}
{"COMPOUND": "CC(C)(c1ccc(OCC(O)CO)cc1)c1ccc(OCC(O)CCl)cc1 (centres unmarked) [(A)]", "PB-Luc activity (%) mean ± SD": 63.96}
{"COMPOUND": "CC(C)(c1ccc(OC[C@H](O)CO)cc1)c1ccc(OC[C@@H](O)CCl)cc1 [(Aa)]", "PB-Luc activity (%) mean ± SD": 66.44}
{"COMPOUND": "CC(C)(c1ccc(OC[C@H](O)CO)cc1)c1ccc(OC[C@H](O)CCl)cc1 [(Ac)]", "PB-Luc activity (%) mean ± SD": 41.58}
